Test system: E. coli BW25113
Assay type: cell-based, Escherichia coli
experimental setup: BW25113, 18 h
Description: The following bacterial strains were used: Escherichia coli BW25113, E. coli BW25113ΔsbmA (JW0368‐1, KEIO collection21); Acinetobacter baumannii ATCC 19606, Klebsiella pneumoniae ATCC 700603, Pseudomonas aeruginosa ATCC 27853 and Staphylococcus aureus ATCC 25923. […]
Ends that are not written are not given here.
For each of the substances below, state its MIC.
Numbers only; they are read as µM.

Enquiry: Which MIC is reported for this substance? RFRPPIRRPPIRPPSYPG-NH2 (C-terminus assumed) [F15S]
Return: 64

Enquiry: Which MIC is reported for this substance? RFRSPIRRPPIRPPFYPG-NH2 (C-terminus assumed) [P4S]
Return: 16

Enquiry: Which MIC is reported for this substance? RFRPPIRRPPIRFPFYPG-NH2 [P13F]
Return: 32

Enquiry: Which MIC is reported for this substance? RFRPPIRRPSIRPPFYPG-NH2 [P10S]
Return: 64

Enquiry: Which MIC is reported for this substance? RFRPPSRRPPIRPPFYPG-NH2 (C-terminus assumed) [I6S]
Return: 64

Enquiry: Which MIC is reported for this substance? RFRPPIRRPPIRPPFYGG-NH2 [P17G]
Return: 16

Enquiry: Which MIC is reported for this substance? RRRPPIRRPPIRPPFYPG-NH2 (C-terminus assumed) [F2R]
Return: 16

Enquiry: Which MIC is reported for this substance? RWRRPIRRRPIRPPFYWG-NH2 [281 (SPOT form)]
Return: 4

Enquiry: Which MIC is reported for this substance? PFRPPIRRPPIRPPFYPG-NH2 [R1P]
Return: 64

Enquiry: Which MIC is reported for this substance? RFRPPIRRPPIRPPFYP [wt, reference compound]
Return: 16
